- EXPERIMENTAL SYSTEM: furin, P09958;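 also: purified furin at 1:10 enzyme:substrate in 50 mM HEPES pH 7.5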
- Sequence (P09958 whole entry): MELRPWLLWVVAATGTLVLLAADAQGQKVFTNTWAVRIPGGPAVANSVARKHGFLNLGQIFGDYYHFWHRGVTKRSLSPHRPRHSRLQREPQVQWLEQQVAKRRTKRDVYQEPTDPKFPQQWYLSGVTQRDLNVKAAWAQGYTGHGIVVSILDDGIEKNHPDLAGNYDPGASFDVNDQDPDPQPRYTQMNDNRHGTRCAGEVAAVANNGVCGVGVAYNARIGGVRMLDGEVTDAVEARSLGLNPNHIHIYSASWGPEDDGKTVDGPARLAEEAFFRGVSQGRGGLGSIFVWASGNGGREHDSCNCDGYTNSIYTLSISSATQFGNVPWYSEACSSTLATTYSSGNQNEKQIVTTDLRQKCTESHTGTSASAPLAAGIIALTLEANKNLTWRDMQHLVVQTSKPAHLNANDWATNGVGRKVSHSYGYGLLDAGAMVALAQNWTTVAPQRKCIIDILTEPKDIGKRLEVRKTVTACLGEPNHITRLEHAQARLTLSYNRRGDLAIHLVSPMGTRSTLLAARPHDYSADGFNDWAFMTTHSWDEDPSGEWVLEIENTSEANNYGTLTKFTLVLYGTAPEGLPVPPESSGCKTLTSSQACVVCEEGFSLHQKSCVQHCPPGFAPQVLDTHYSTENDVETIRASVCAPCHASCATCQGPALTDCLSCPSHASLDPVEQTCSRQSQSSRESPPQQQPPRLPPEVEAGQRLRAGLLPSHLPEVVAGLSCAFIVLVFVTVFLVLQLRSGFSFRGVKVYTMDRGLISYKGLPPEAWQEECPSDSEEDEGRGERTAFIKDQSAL
- METHOD SUMMARY: furin cleavage Z-score vs untreated control; higher = more cleavage, active = 3.5 or more, inactive = 1 or less, 8 variable residues between constant flanks
- SETTINGS: 7.5 min
The other results are listed elsewhere or left out. The true hit rate is not given.
sequences and their reported furin cleavage Z-score
Format: numeric value only, no unit, no commentary.

Solved cases below.
INSERT INTO assay_data (sequence_chain, result_number) VALUES
  ('CAQDVRCRRLAGNASASA [FS-478]', 1.46),
  ('CACRARRRRLAGNASASA [FS-16]', 9.49),
  ('CARCKRTVLDAGNASASA [FS-2482]', 0.324),
  ('CAMEECSQRLAGNASASA [HC1753]', 0.426),
  ('CAKRSRRIRPAGNASASA [FS-1461]', -0.256);

For reference, reported furin cleavage Z-score for CAENLETTMRAGNASASA [HC760] stands at 0.652

For reference, reported furin cleavage Z-score for CAIVCCSMSYAGNASASA [HC1984] stands at 0.599
